B1: CCNC (parent)
chain: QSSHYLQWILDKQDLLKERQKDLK

- Variants of: B1
- assay method text: protein stability index of a GFP-peptide fusion (GPS, HEK-293T) (PSI 1-6); higher = more stable;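 note: lentivirally expressed fusions sorted by FACS into six bins by GFP to DsRed ratio, PSI derived from sequencing read proportions per bin multiplied by bin number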
- test parameters: c terminus: a fixed tail appended
# protein stability index >= 3 gives True, anything below gives False

Known results for variants:
* W8T | True
* K17F | False
* Q1K | False

Qu. Confirm if protein stability index reported for the variant `L23I` is 3 or above.
Ans. True

Qu. Confirm if protein stability index reported for the variant `S2K` is 3 or above.
Ans. False

Qu. Confirm if protein stability index reported for the variant `Q1N` is 3 or above.
Ans. True

Qu. Confirm if protein stability index reported for the variant `Q7C` is 3 or above.
Ans. False

Qu. Confirm if protein stability index reported for the variant `L23E` is 3 or above.
Ans. True

Qu. Confirm if protein stability index reported for the variant `K12S` is 3 or above.
Ans. False

Qu. Confirm if protein stability index reported for the variant `K24F` is 3 or above.
Ans. False

Qu. Confirm if protein stability index reported for the variant `K12G` is 3 or above.
Ans. False

Qu. Confirm if protein stability index reported for the variant `W8M` is 3 or above.
Ans. True

Qu. Confirm if protein stability index reported for the variant `D14E` is 3 or above.
Ans. True

Qu. Confirm if protein stability index reported for the variant `K24M` is 3 or above.
Ans. False

Hello, the source for this data is the supplement of paper PMC10567573, in case you need it.
